The entries below are paired with their reported viability, T/C.
- Tested on: 786-0 complex spheroid viability
- protocolNotes: Anticancer human tumor 786-0 cell line growth inhibition;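 also: spheroids exposed to agents for seven days before readout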
- conditionContext: second compound 0.316 µM; first compound 0.01 µM; hits give low values
readoutType: viability, T/C (%)

>>> print(df.to_string())
                                   compound     readouttype  observedresult
0  CC[C@@]1(O)C(=O)OCc2c1cc1n(c2=O)Cc2cc3c(CN(C)C)c(O)ccc3nc2-1 + NC1CC1c1ccc(-c2cccc(O)c2)cc1  viability, T/C            10.7
1  CC(C)CC(NC(=O)C(Cc1ccccc1)NC(=O)c1cnccn1)B(O)O (configuration not stated) + NC1CCC(NC2CC2c2ccccc2)CC1  viability, T/C            3.06
2  CC(C)CC(NC(=O)C(Cc1ccccc1)NC(=O)c1cnccn1)B(O)O (configuration not stated) + NC1CC1c1ccc(-c2cccc(O)c2)cc1  viability, T/C            9.41
3  Nc1ncn(C2CC(O)C(CO)O2)c(=O)n1 (configuration not stated) + NC1CCC(NC2CC2c2ccccc2)CC1  viability, T/C             108
4  Cn1ncnc1C1c2n[nH]c(=O)c3cc(F)cc(c23)NC1c1ccc(F)cc1 (configuration not stated) + NC1CCC(NC2CC2c2ccccc2)CC1  viability, T/C             117
5  CC1COCCN1c1cc(-c2ccnn2C)c2ccnc(-c3ccn[nH]3)c2n1 (configuration not stated) + NC1CC1c1ccc(-c2cccc(O)c2)cc1  viability, T/C             107
6  CC1COCCN1c1cc(-c2ccnn2C)c2ccnc(-c3ccn[nH]3)c2n1 (configuration not stated) + NC1CCC(NC2CC2c2ccccc2)CC1  viability, T/C             114

The values you see were collected from PubChem BioAssay AID1918944.
